- target.of.assay: Tyrosine-protein phosphatase non-receptor type 1 (Homo sapiens, UniProt P18031)
- Sequence (P18031 whole entry): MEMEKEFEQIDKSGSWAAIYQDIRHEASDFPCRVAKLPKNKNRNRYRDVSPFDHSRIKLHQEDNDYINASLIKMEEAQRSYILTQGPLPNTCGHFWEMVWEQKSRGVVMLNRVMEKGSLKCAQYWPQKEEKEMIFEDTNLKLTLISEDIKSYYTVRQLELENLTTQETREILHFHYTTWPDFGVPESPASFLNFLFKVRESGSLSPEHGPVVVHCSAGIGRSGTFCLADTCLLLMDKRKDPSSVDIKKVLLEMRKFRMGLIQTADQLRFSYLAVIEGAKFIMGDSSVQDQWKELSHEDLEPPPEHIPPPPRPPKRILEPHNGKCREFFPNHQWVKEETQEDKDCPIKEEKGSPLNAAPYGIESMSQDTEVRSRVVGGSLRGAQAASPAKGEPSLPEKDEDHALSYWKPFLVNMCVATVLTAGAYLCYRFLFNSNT
- experiment.description: Inhibition of recombinant human PTP1B assessed as hydrolysis of p-nitrophenyl phosphate after 30 mins
# if measured IC50 < 20 µM: Met  # else: Not met

Look over these answered cases.
C=CC(C)(C)c1cc(/C=C/C(=O)c2ccc(OC(C)=O)cc2)c(OC)cc1OC(C)=O    Not met
C=C(C)C(C)c1cc(/C=C/C(=O)c2ccc(O)cc2)c(OC)cc1O (centres undefined)    Not met
C=CC(C)(C)c1cc(/C=C/C(=O)c2ccc(OC(C)=O)cc2)c(OC)cc1OC    Not met
C=CC(C)(C)c1cc(/C=C/C(=O)c2ccc(OC(C)=O)cc2)c(OC)cc1O    Met
C=CC(C)(C)c1cc(/C=C/C(=O)c2ccc(O)cc2)c(OC)cc1OC(C)=O    Met

Challenge: Bench note: check whether C=CC(C)(C)c1cc(/C=C/C(=O)c2ccc(O)cc2)c(OC)cc1O shows IC50 below 20 µM
Response given: Met

Challenge: Bench note: check whether O=C(/C=C/c1ccc(O)cc1)c1ccc(O)cc1O shows IC50 below 20 µM
Response given: Not met

Challenge: Bench note: check whether COc1cc(O)ccc1/C=C/C(=O)c1ccc(O)cc1 shows IC50 below 20 µM
Response given: Not met

Challenge: Bench note: check whether COc1c(/C=C/C(=O)c2ccc(O)cc2)ccc(O)c1CC=C(C)C shows IC50 below 20 µM
Response given: Not met

---

Consider the following compounds and their measured pIC50 readings.
- target.of.assay: Tyrosine-protein phosphatase non-receptor type 1 (Homo sapiens, UniProt P18031)
- experiment.description: Inhibition of recombinant human PTP1B assessed as hydrolysis of p-nitrophenyl phosphate after 30 mins
Quick note: pIC50 means taking -log10 of the concentration in moles per liter.

A selection of reference data follows.
C=CC(C)(C)c1cc(/C=C/C(=O)c2ccc(OC)cc2)c(OC)cc1OC    4.70
C=CC(C)(C)c1cc(/C=C/C(=O)c2ccc(OC)cc2)c(OC)cc1O    4.93
C=CC(C)(C)c1cc(/C=C/C(=O)c2ccc(O)cc2)c(OC)cc1OC    4.74

Could you now consider this next compound?
In plain terms, C=CC(C)(C)c1cc(/C=C/C(=O)c2ccc(OC)cc2)c(OC)cc1OC(C)=O has a documented pIC50 of 4.71

Data origin: ChEMBL document CHEMBL1155313
